tested target: D(2) dopamine receptor (Homo sapiens)
Sequence (P14416 whole entry): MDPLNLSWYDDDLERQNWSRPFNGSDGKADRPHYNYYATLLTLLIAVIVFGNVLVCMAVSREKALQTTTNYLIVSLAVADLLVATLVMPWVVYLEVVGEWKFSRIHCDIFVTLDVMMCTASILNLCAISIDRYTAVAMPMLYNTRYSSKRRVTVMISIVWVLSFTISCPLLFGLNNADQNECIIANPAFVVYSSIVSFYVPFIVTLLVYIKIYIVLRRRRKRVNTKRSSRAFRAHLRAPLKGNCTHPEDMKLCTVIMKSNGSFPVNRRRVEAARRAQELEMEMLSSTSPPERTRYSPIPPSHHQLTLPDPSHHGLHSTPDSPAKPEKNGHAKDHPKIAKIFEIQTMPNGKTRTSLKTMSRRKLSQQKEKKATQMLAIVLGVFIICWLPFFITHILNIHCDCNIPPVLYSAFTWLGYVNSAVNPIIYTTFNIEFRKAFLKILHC
experimental details: Displacement of [3H]spiperone from human dopamine receptor D2(short) in CHO cell membrane
Format: cell membranes
// boundary case: Ki equal to 50000 nM maps to NO; strictly smaller maps to YES

Consider the worked cases shown below.
| record smiles | tested target | assigned label |
| --- | --- | --- |
| Fc1ccc(N2CCN(Cc3cn4ccncc4n3)CC2)cc1 | D(2) dopamine receptor (Homo sapiens) | NO |
| COc1ccccc1N1CCN(Cc2cn3cc(C)cc(-n4cccn4)c3n2)CC1 | D(2) dopamine receptor (Homo sapiens) | YES |
| COc1ccccc1N1CCN(Cc2cn3cc(C)cc(C#N)c3n2)CC1 | D(2) dopamine receptor (Homo sapiens) | YES |
| COc1ccccc1N1CCN(Cc2cn3cc(I)ccc3n2)CC1 | D(2) dopamine receptor (Homo sapiens) | YES |

# next molecule below
Bench note: check whether COc1ccccc1N1CCN(Cc2cn3cc(C)cc(I)c3n2)CC1 shows Ki below 50000 nM
YES

* * *

tested target: D(3) dopamine receptor (Homo sapiens)
Sequence (P35462 whole entry): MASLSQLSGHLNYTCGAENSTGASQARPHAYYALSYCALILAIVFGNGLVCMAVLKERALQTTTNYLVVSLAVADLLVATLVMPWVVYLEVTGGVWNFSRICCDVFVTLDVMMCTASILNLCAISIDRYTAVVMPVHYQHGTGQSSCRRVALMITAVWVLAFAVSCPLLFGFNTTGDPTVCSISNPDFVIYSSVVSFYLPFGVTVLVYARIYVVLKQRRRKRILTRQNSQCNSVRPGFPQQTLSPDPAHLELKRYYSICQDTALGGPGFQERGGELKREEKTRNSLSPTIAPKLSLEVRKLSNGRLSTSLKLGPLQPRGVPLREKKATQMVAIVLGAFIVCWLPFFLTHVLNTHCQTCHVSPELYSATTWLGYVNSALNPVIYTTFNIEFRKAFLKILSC
pKi: −log10 of the molar value.
Class T: pKi at least 5. Class F: pKi below 5.

| record smiles | tested target | assigned label |
| --- | --- | --- |
| COc1ccccc1N1CCN(Cc2cn3cc(C)cc(C#N)c3n2)CC1 | D(3) dopamine receptor (Homo sapiens) | T |
| Fc1ccc(N2CCN(Cc3cn4cccnc4n3)CC2)cc1 | D(3) dopamine receptor (Homo sapiens) | F |
| COc1ccccc1N1CCN(Cc2cn3cc(I)ccc3n2)CC1 | D(3) dopamine receptor (Homo sapiens) | T |

Item Fc1ccc(N2CCN(Cc3cn4nc(Cl)ccc4n3)CC2)cc1 with pKi of 5 or above?
T

Item COc1ccccc1N1CCN(Cc2cn3cc(C)cc(-n4cccn4)c3n2)CC1 with pKi of 5 or above?
T

Item COc1ccccc1N1CCN(Cc2cn3cc(C)cc(Br)c3n2)CC1 with pKi of 5 or above?
T

Item Fc1ccc(N2CCN(Cc3cn4ccncc4n3)CC2)cc1 with pKi of 5 or above?
F
